mass density values, listed per item
testContext: 298.15 K; 101 kPa; Liquid
Provide the reading as a plain figure in kg/m3.

Reference set (3 entries):
C1CCOC1 [tetrahydrofuran] = 882.056
CCO [ethanol] = 785.207
CN(C)C=O [dimethylformamide] = 944.076

# mass density lookup, item CC#N [acetonitrile]
776.389

# mass density lookup, item CCCCO [butan-1-ol]
806.024

# mass density lookup, item C1COCCO1 [1,4-dioxane]
1028.34

# mass density lookup, item CCCO [propan-1-ol]
799.683

# mass density lookup, item CO [methanol]
786.66

* * *

experiment: mn = molality of the nth substance listed, in mol/kg
testContext: 298.15 K; 101 kPa; Liquid; m2 = 0
± gives the expanded uncertainty stated by the source.
quantity: mass density
Please don't drop the unit; write it after the number.

C1COCCO1 [1,4-dioxane] + O = 1028.34 ± 0.38 kg/m3
CCCCO [butan-1-ol] + O = 806.024 ± 0.56 kg/m3
C1CCOC1 [tetrahydrofuran] + O = 882.056 ± 0.47 kg/m3

Query compound follows.
# mass density lookup, item CN(C)C=O [dimethylformamide] + O
944.076 ± 0.39 kg/m3
